# target.of.assay: cPLA2 (Homo sapiens)
property.measured: IC50 (µM)

Input line: Fill in the blank: the reported IC50 of O=C1NC(=O)C(=Cc2ccc(NC(=O)[C@@H]3C[C@H](SCc4ccc(C(F)(F)F)cc4)CN3C(=O)c3ccccc3)cc2)S1 is ____.
Output line: 5.3

1 = O=C1NC(=S)S/C1=C\c1ccc(NC(=O)[C@@H]2C[C@H](SCc3ccccc3)CN2S(=O)(=O)Cc2ccc(F)cc2)cc1
2 = O=C1NC(=O)C(=C(CO)c2ccc(NC(=O)[C@@H]3C[C@H](SCc4ccccc4)CN3S(=O)(=O)c3ccc(-c4ccccc4)cc3)cc2)S1
Input line: Determine, for 1 and 2 , which has the greater value of IC50. Pick one; state its label.
Output line: 2

* * *

# target.of.assay: cPLA2 (Homo sapiens, UniProt P47712)
# Sequence (P47712 whole entry): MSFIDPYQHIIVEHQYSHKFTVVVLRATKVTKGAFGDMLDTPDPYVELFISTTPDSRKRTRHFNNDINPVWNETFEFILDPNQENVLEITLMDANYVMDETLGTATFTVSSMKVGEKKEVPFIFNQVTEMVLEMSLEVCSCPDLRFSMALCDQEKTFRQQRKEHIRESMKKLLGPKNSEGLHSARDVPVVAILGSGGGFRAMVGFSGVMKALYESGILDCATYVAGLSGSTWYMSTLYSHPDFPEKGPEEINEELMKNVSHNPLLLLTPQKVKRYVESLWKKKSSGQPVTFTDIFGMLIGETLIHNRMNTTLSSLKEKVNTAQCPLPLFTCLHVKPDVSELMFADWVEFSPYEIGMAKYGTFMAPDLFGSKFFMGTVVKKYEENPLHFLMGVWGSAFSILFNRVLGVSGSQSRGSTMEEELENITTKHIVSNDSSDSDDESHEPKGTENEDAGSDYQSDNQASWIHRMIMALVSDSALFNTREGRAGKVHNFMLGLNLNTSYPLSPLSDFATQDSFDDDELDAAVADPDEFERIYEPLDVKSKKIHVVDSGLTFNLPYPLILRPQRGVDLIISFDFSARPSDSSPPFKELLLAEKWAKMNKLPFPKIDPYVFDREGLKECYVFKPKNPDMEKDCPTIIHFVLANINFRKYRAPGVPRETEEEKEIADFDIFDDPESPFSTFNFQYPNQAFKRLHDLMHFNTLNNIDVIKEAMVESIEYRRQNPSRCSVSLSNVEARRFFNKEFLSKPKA
property.measured: IC50 (µM)

Input line: I would be grateful if you could share the reported IC50 for CS[C@H]1C[C@@H](C(=O)Nc2ccc(C(CO)=C3SC(=O)NC3=O)cc2)N(S(=O)(=O)c2ccc(-c3ccccc3)cc2)C1 [Compound D-1] .
Output line: 22

Input line: For the compound shown here, CC(C)(C)OC(=O)N1C[C@@H](SC(c2ccccc2)(c2ccccc2)c2ccccc2)C[C@H]1C(=O)Nc1ccc(/C=C2\OC(=S)NC2=O)cc1 [Compound A-62] , give the reported IC50.
Output line: 4.3

P = O=C1NC(=O)C(=Cc2ccc(C(=O)NC[C@@H]3C[C@H](NC(=O)c4ccc(Cn5sccc5=O)cc4)CN3S(=O)(=O)c3ccc(-c4ccccc4)cc3)cc2)S1 [Compound J-2]
Q = CC(=O)N1C[C@@H](SCc2ccccc2)C[C@H]1C(=O)Nc1ccc(C=C2SC(=S)NC2=O)cc1 [Compound A-14]
Input line: Compare P and Q and name the one whose reported IC50 is smaller. Give the label of your selection.
Output line: P

1 = CC(C)(C)OC(=O)N1CC(OCc2ccc(F)cc2F)C[C@H]1CNC(=O)c1ccc(/C=C2\SC(=O)NC2=O)cc1 (stereo partly shown) [Compound H-6]
2 = CC(C)=CCCC(C)=CCS[C@H]1C[C@@H](C(=O)Nc2ccc(C=C3SC(=O)NC3=O)cc2)N(C(=O)c2ccccc2)C1 [Compound A-11]
3 = CC(C)S[C@H]1C[C@@H](C(=O)Nc2ccc(C=C3SC(=S)NC3=O)cc2)N(C(=O)OC(C)(C)C)C1 [Compound A-16]
Input line: # rank_down: sort by IC50, max first # respond with the labels, arranged in the requested order
Output line: 3, 2, 1
(3: 22 µM, 2: 4.7 µM, 1: 1.7 µM)

I = O=C1NC(=S)SC1=Cc1ccc(NC(=O)[C@@H]2C[C@H](SCc3ccccc3)CN2C(=S)Nc2ccccc2)cc1 [Compound A-29]
II = O=CN1C[C@@H](SCc2ccccc2)C[C@H]1C(=O)Nc1ccc(C=C2SC(=S)NC2=O)cc1 [Compound A-13]
III = O=C1NC(=O)/C(=C/c2ccc(CCC[C@@H]3C[C@H](SC(c4ccccc4)c4ccccc4)CN3C(=O)CCc3ccccc3)cc2)S1 [Compound E-4]
Input line: Please put the entries in order of rising IC50. List the labels according to the requested ordering.
Output line: III, I, II

a = O=C1NC(=O)/C(=C/c2ccc(C(=O)NC[C@@H]3CC(OC(c4ccccc4)c4ccccc4)CN3C(=O)c3ccccc3)cc2)S1 (stereo partly shown) [Compound H-1]
b = COC1C[C@@H](CNC(=O)c2ccc(/C=C3\SC(=O)NC3=O)cc2)N(S(=O)(=O)c2ccc(Cc3ccccc3)cc2)C1 (stereo partly shown) [Compound H-4]
Input line: Between a and b , which one shows the larger IC50 value? When you have decided, please share the label of that item.
Output line: b
